Test: endothelial E-selectin expression blockers – imaging, HUVEC, immunofluorescence, MLSMR starter and 10KST1 sets, primary screen (AID 487);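 further: signal is fraction of cell area covered by stained E-selectin grains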
Assay Conditions: HUVEC TNFalpha-induced E-selectin immunofluorescence imaging, at 2 µM; stronger effect = higher value
Activity calls are given as the source filed them.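 How the source made its calls: active means visually confirmed hit in the image check and inhibition above 20%; inconclusive means visually confirmed hit but inhibition not above 20%; inactive means no visual hit in the image check.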

| Compound | inhibition |
| --- | --- |
| CCC1Cc2c(nc3c4c(nc(N5CCOCC5)c(C#N)c24)NC(C)=N3)O1 (stereo not given) | 43.9% (inactive) |
| NS(=O)(=O)c1ccc(NC(=O)N[C@@H](Cc2ccccc2)C(=O)O)cc1 | 16.6% (inactive) |
| CC(=O)Nc1ccc(NC(=O)C(C)Oc2ccccc2F)cc1 (stereo not given) | 4.3% (inactive) |
| CCN(CC)S(=O)(=O)c1ccc2c(c1)nc(SCn1nnc3ccccc3c1=O)n2CC | -114% (inactive) |
| O=C(NCCC1=CCCCC1)C1CCN(S(=O)(=O)c2cnc[nH]2)CC1 | -36.1% (inactive) |

---

Test: inhibitors of TNFa-induced NFkB p65 translocation, primary screen, imaging, HUVEC, MLSMR starter and 10KST1 sets (AID 438);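 further: compound added about 3h40 before a 20 min TNFalpha stimulation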;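 on inhibition: signal is the nuclear over cytoplasmic p65 intensity ratio per well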
Assay Conditions: HUVEC TNFa-induced p65 nuclear translocation; at 2 µM, stronger effect = higher value, 0% TNFa-plus-vehicle, 100% no-TNFa wells
Property: inhibition (%)

| Compound | Property | Value Units | Numeric Readout |
| --- | --- | --- | --- |
| Cc1[nH]c(=O)[nH]c(=O)c1S(=O)(=O)N1CCCC(C(=O)NCc2ccco2)C1 (configuration not stated) | inhibition | % | -2.8 |
| Cc1ccc(S(=O)(=O)N2CCN(C(=O)N3CCOCC3)C2C)cc1 (configuration not stated) | inhibition | % | 7.3 |
| COc1cccc(OCCn2ccnc2)c1 | inhibition | % | -6.6 |
| CCCC(=O)Nc1ccccc1NC(=O)CCC | inhibition | % | -5.6 |
| Cc1ccc(NC(=O)CNc2cccc(C)c2C)c(C)c1 | inhibition | % | 2.5 |
| CCOc1ccc(S(=O)(=O)n2c(C)nc3ccccc32)cc1 | inhibition | % | -5.8 |
| CCN(CC)c1ccc(NC(=O)c2cncc(Br)c2)cc1 | inhibition | % | 0.6 |
| O=C(NCCCNC1CCCCC1)c1ccc(/C=N/O)nc1 | inhibition | % | 2 |
| CC(=O)Nc1ccc(NC(=O)C(C)Oc2ccccc2F)cc1 (configuration not stated) | inhibition | % | 3.9 |
| CN(C=O)CP(=O)(O)CCN1CCCC1=O | inhibition | % | 7 |
| CCOc1nc2ccccc2nc1NS(=O)(=O)c1ccccc1 | inhibition | % | -4.2 |
| O=C(N1CCOCC1)N1CCC(NC(=O)C23CC4CC(CC(C4)C2)C3)CC1 | inhibition | % | 9.1 |

---

Test: inhibitors of TNFa-induced NFkB p65 translocation, primary screen, imaging, HUVEC, MLSMR starter and 10KST1 sets (AID 438);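 further: compound added about 3h40 before a 20 min TNFalpha stimulation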
Assay Conditions: HUVEC TNFa-induced p65 nuclear translocation; measured here: nuclei count (cytotoxicity indicator), at 2.08 µM
Where cell count equals or exceeds 400, the correct label is T; where it does not, the label is F.

| Compound | Class |
| --- | --- |
| O=C(CN1C(=O)CC(c2ccco2)Sc2ccccc21)Nc1ccc2c(c1)OCCO2 (stereo not given) | T |
| CCN(Cc1cc2cc(OC)ccc2[nH]c1=O)C(=O)Cc1ccc(OC)cc1 | F |
| COc1ccc(CCNc2oc(-c3ccco3)nc2C#N)cc1 | T |
| O=C(c1cccc(Cl)c1)N1CCN(Cc2ccncc2)CC1 | T |
| CC(=O)C1=C(N2CCCCC2)CCC1=O | T |
| Cc1cc(C)n(C(=O)CCCCCC(=O)n2nc(C)cc2C)n1 | T |
| O=C(Nc1ccc2c(c1)nc1n2CCSC1)c1ccccc1 | T |
| CCOc1cc(C(=O)NCC2CCCO2)cc(OCC)c1OCC (stereo not given) | T |
| O=C1CCC(=O)N1OCCCOc1ccc(Br)cc1Cl | T |
| O=C(CS(=O)(=O)c1cn(Cc2ccc(F)cc2)c2ccccc12)N1CCCCC1 | T |
| CCn1nnnc1SCC(=O)Nc1nnc(C(C)C)s1 | F |
| CC1Cc2ccccc2N1Cc1cc(=O)n2ccsc2n1 (stereo not given) | T |
| Cn1c(CN2CCOCC2)nnc1SCC(=O)NCCc1ccccc1 | T |
| CCC(C)OC(=O)C1=C(C)NC2=C(C(=O)C(C(=O)OC)C(C)C2)C1c1ccc(N(C)C)cc1 (stereo not given) | F |
| COc1ccc(C2C(C#N)=C(C)NC3=C2C(=O)CC(C)(C)C3)c(OC)c1 (stereo not given) | F |
| O=C(NCCN1CCOCC1)c1ccc(CS(=O)(=O)Cc2ccccc2F)o1 | T |
| O=C(CSc1nnc(Cn2c(=O)sc3ccccc32)n1-c1ccccc1)Nc1nccs1 | T |
| CCc1cc2c(=O)c(-c3ccc4c(c3)OCCO4)coc2cc1OC(=O)c1ccco1 | T |
| Oc1ccc(C=Nc2cccc3ncccc23)c(O)c1 | T |
| N#Cc1c(-c2ccc3c(c2)OCO3)csc1N | T |
| O=C(c1cnc2n(c1=O)CCS2)N(C1CCCCC1)C1CCCCC1 | T |
| CC1(C)OC(=O)C(=CNc2ccccc2)C(=O)O1 | T |
| C1=C(CCNc2ncnc3c2cnn3-c2ccccc2)CCCC1 | F |
| Cc1sc2nc(SCC(=O)NCCO)n(C)c(=O)c2c1C | F |
| FC(F)Sc1nnc(-c2cccs2)n1-c1ccccc1 | T |
| Nc1nc(CSc2nc3ccccc3[nH]2)nc(N2CCOCC2)n1 | T |
| CC(=O)Nc1cccc(NC(=O)CSc2nn3c(=O)c(C)nnc3s2)c1 | T |
| CS(=O)(=O)Nc1ccc(C(=O)NCCc2ccccc2)cc1 | F |
| Clc1ccc(Cl)c(-c2nn3c(Cn4cnc5ccccc54)nnc3s2)c1 | T |
| COc1ccccc1C(=O)Nc1nc2ccc(S(C)(=O)=O)cc2s1 | T |
| O=C(CCCn1ncn2c(cc3occc32)c1=O)N1CCc2ccccc2C1 | F |
| c1ccc(-c2noc(C34CC5CC(CC(C5)C3)C4)n2)nc1 | F |
| C=CCc1ccccc1OCC(O)CN1CCN(Cc2ccc3c(c2)OCO3)CC1 (stereo not given) | F |
| CNC(=O)CSc1nnc(-c2cccc(S(=O)(=O)N3CCOCC3)c2)n1-c1ccc(F)cc1 | T |
| CCC(=O)N1CCNC(=O)C1CC(=O)Nc1ccc(C)c(Cl)c1 (stereo not given) | F |
| Cc1nc2sc(C(c3cccc(F)c3)N3CCC(C)CC3)c(O)n2n1 (stereo not given) | F |
| COc1cccc(-c2csc3nc[nH]c(=O)c23)c1 | T |
| C=CCn1c(=O)[nH]c2cc(C(=O)N3CCN(c4ccc(C(C)=O)cc4)CC3)ccc2c1=O | F |
| Cn1c(=O)[nH]c(=O)c2c1nc(Br)n2CCCSc1nc2ccccc2o1 | T |
| CC(=O)N1CCc2cc(S(=O)(=O)NCCC(=O)Nc3cc(C)cc(C)c3)ccc21 | T |
| COC(=O)c1ccc(CSc2nc(-c3ccc(OC)cc3)nc3c2c(=O)n(C)c(=O)n3C)o1 | T |
| CC(C)CC(=O)N1CCN(S(=O)(=O)c2ccc(F)cc2)CC1 | T |
| COc1cccc(C(c2nnnn2Cc2ccccc2)N2CCN(C(=O)c3ccco3)CC2)c1OC (stereo not given) | T |
